Answer each item with its documented fluorescence slope.
# target system: Voltage-gated potassium channel subunit beta-2 (Rattus norvegicus)
# test: inhibitors of rat Kvbeta2 reductase activity – biochemical, NADPH fluorescence, primary screen (AID 622);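 further: slope of raw intensity against log time taken from 70 to 1610 s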
# reported conditions: recombinant KvBeta, 4-cyanobenzaldehyde reduction, at 10 µM, stronger effect = higher value
Please reply with the number alone, leaving off any unit.

input: Requested read-out: fluorescence slope. Entry: Cc1ccc(N2CC(C(=O)N3CCN(C(=O)c4ccco4)CC3)CC2=O)cc1 (stereo not given)
output: -0.571

input: Requested read-out: fluorescence slope. Entry: Cc1cc(-c2nc3ncccc3o2)ccc1N
output: -0.0237

input: Requested read-out: fluorescence slope. Entry: O=C(COC(=O)c1ccc(S(=O)(=O)Nc2ccccc2)cc1)NCCN1C(=O)CSC1=O
output: -0.372

input: Requested read-out: fluorescence slope. Entry: Cc1noc(C)c1S(=O)(=O)N1CCC(C(=O)Nc2ccccn2)CC1
output: -0.404

input: Requested read-out: fluorescence slope. Entry: CCOC(=O)CSC1=Nc2ccccc2C2=NC(CC(=O)NCc3ccc(OC)cc3)C(=O)N12 (stereo not given)
output: -0.476

---

# test: endothelial E-selectin expression blockers – imaging, HUVEC, immunofluorescence, MLSMR starter and 10KST1 sets, primary screen (AID 487);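 further: signal is fraction of cell area covered by stained E-selectin grains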
# reported conditions: HUVEC TNFalpha-induced E-selectin immunofluorescence imaging, at 2 µM; stronger effect = higher value
property name: inhibition (%)
Give your result in % as a bare value.

input: Requested read-out: inhibition. Entry: O=c1c(O)c(-c2ccc(O)cc2O)oc2cc(O)cc(O)c12
output: 3

input: Requested read-out: inhibition. Entry: COc1ccc(OC)c(CNC(=O)CCN2C(=O)COc3ccccc32)c1
output: -29.9

input: Requested read-out: inhibition. Entry: CN(C)/C=c1\sc2c(C#N)cc(C(=O)c3ccc(Br)cc3)n2c1=O
output: 0.2

input: Requested read-out: inhibition. Entry: N#CCSc1nc2c(c(C3CC=CCC3)c1C#N)CCC2 (stereo not given)
output: -44.5

input: Requested read-out: inhibition. Entry: O=c1n(CCCN2CCN(c3cccc(Cl)c3)CC2)nc2ccccn12
output: -117

input: Requested read-out: inhibition. Entry: O=C(CCN1CCOCC1)Nc1ccc2c(c1)CCC2
output: -83.8

input: Requested read-out: inhibition. Entry: COc1cc(OC)cc(-c2nc3nc(C)c(CCC(=O)O)c(C)n3n2)c1
output: 46.5

input: Requested read-out: inhibition. Entry: COc1ccc(CN2C(=O)C(O)(CC(=O)c3c(C)n[nH]c3C)c3ccccc32)cc1OC (stereo not given)
output: -27.7

input: Requested read-out: inhibition. Entry: COc1cccc(N2CCN(c3c4c(nc5ncnn35)CCC4)CC2)c1
output: 2.7

input: Requested read-out: inhibition. Entry: COc1ccc(S(=O)(=O)NCc2ccco2)cc1-c1nnc2c3ccccc3c(C)nn12
output: -77.8

input: Requested read-out: inhibition. Entry: Cn1c(SCC(N)=O)nnc1C1CCN(S(=O)(=O)c2ccccc2C(F)(F)F)CC1
output: 33.9

input: Requested read-out: inhibition. Entry: Clc1ccc(SCCCCn2ccnc2)cc1
output: -114

input: Requested read-out: inhibition. Entry: O=C(CCCCCn1c(=O)[nH]c2ccsc2c1=O)N1CCCCC1
output: -75

input: Requested read-out: inhibition. Entry: c1ccc(Cn2nnnc2C(c2ccccn2)N2CCOCC2)cc1 (stereo not given)
output: -85.1

input: Requested read-out: inhibition. Entry: CC(=O)Nc1ccc(Cl)c(C(N)=O)c1
output: -97.8

input: Requested read-out: inhibition. Entry: CCCCn1nnnc1SCC(=O)Nc1cccc(C)n1
output: -47.5

input: Requested read-out: inhibition. Entry: CN(C)CCSc1nnc2sc3ccccc3n12
output: -71.5

input: Requested read-out: inhibition. Entry: Cc1ccc(S(=O)(=O)NC(C(=O)OCC(=O)NC2CCS(=O)(=O)C2)C(C)C)cc1 (stereo not given)
output: -40.2

input: Requested read-out: inhibition. Entry: CCn1c(SCC(=O)Nc2nccs2)nnc1-c1ccncc1
output: -20.2

input: Requested read-out: inhibition. Entry: COC(=O)c1c(-c2ccc(F)cc2)noc1N
output: -2

input: Requested read-out: inhibition. Entry: O=S(=O)(c1ccccc1)N1CCN(C2CCCCCCC2)CC1
output: -53.1

input: Requested read-out: inhibition. Entry: Cc1nn(-c2ccc(F)cc2)c2sc(C(=O)OCC(=O)N3CCC(C)CC3)cc12
output: 0.8

input: Requested read-out: inhibition. Entry: COc1cc(NC(=O)Cc2nn(C)c(=O)c3ccccc23)cc(OC)c1
output: -39

input: Requested read-out: inhibition. Entry: O=c1c2ccccc2sn1-c1ccc(S(=O)(=O)N2CCCCC2)cc1
output: 53.4

input: Requested read-out: inhibition. Entry: Cn1nnnc1SCC(=O)NCc1ccco1
output: -60.2

input: Requested read-out: inhibition. Entry: COc1cc(-c2nnc(SCC(=O)c3ccc(C)cc3)o2)cc(OC)c1OC
output: 28.9

input: Requested read-out: inhibition. Entry: O=C1c2ccccc2NC(c2ccco2)N1O (stereo not given)
output: -169

input: Requested read-out: inhibition. Entry: O=C(OCc1cc2ccccc2[nH]c1=O)c1ccncc1
output: -66

input: Requested read-out: inhibition. Entry: COc1cc(C2Oc3cc(C4Oc5cc(O)cc(O)c5C(=O)C4O)ccc3OC2CO)ccc1O (stereo not given)
output: -86.6

input: Requested read-out: inhibition. Entry: COc1ccc(-c2cnc(SCC(=O)Nc3ccc4c(c3)OCO4)n2Cc2ccco2)cc1
output: -1.8

input: Requested read-out: inhibition. Entry: CCn1c(CC(=O)Nc2cccc(OC)c2)nnc1SCC(=O)Nc1nccs1
output: -129

input: Requested read-out: inhibition. Entry: O=C(Cc1cccs1)Nc1ccccc1C(=O)O
output: -7.6

input: Requested read-out: inhibition. Entry: CCN1CCN(Cc2ccc(NC(=O)Nc3ccc(SC)cc3)cc2)CC1
output: -52.1

input: Requested read-out: inhibition. Entry: CC1(C)S[C@@H]2[C@H](NC(=O)Cc3ccccc3)C(=O)N2[C@H]1C(=O)O
output: -6

input: Requested read-out: inhibition. Entry: O=C(CC1CCCCC1)NCc1ccccn1
output: -42.2

input: Requested read-out: inhibition. Entry: Cc1cc(C)cc(NC(=O)N2CCC(c3nc4ccccc4o3)CC2)c1
output: -66.7

input: Requested read-out: inhibition. Entry: O=C(Nc1nc2ccc(S(=O)(=O)N3CCCC3)cc2s1)C1CCCO1 (stereo not given)
output: 28.1

input: Requested read-out: inhibition. Entry: CCCN(CCC)CCNC(=O)C(NS(=O)(=O)c1ccc2c(c1)CCC(=O)N2)c1ccccc1 (stereo not given)
output: -17.1

input: Requested read-out: inhibition. Entry: CCCc1cc(C(N)=O)c(NC(=O)c2ccco2)s1
output: -45

input: Requested read-out: inhibition. Entry: Cc1cc(C)c2c(n1)sc1c(N3CCOCC3)ncnc12
output: -61.4

input: Requested read-out: inhibition. Entry: CCOC(=O)c1c(C)oc2c1c(C=NCc1ccccn1)c(O)c1ccccc12
output: -112

input: Requested read-out: inhibition. Entry: C=C(C)c1cccc(C(C)(C)NC(=O)Nc2ncccn2)c1
output: -0.4

input: Requested read-out: inhibition. Entry: O=C1[C@@H]2C(c3ccccc3Cl)=NO[C@@H]2C(=O)N1Cc1ccccc1
output: -238

input: Requested read-out: inhibition. Entry: COC(=O)c1ccc2c(=O)n(Cc3ccco3)c(SCC(=O)Nc3ccc(C)c(Cl)c3)nc2c1
output: 4.9

input: Requested read-out: inhibition. Entry: CCN1CCN(C(=O)N[C@@H](C(=O)N[C@@H]2C(=O)N3[C@@H]2SC(C)(C)[C@@H]3C(=O)O)c2ccccc2)C(=O)C1=O
output: -1.2

Reference source for all entries: PubChem BioAssay
